Measured viability at 48 h, 20 µM of individual entries
# Test: Cytotoxicity against HEK293T cells assessed as cell viability at 20 uM incubated for 48 hrs by CCK-8 assay
# Format: cell-based, HEK-293T
# Run Conditions: human, read-out: Activity
Report as a plain number; the unit % is understood.

1) COc1cc(Cl)c2nc(-c3cc(C)cc4c(=O)n(C)cnc34)sc2c1 59.3

Next up:
**Q:** Consider the molecule shown here: Cc1cc(-c2nc3c(Cl)cc(OCCNS(=O)(=O)c4ccc(C(F)(F)F)cc4)cc3s2)c2ncn(C)c(=O)c2c1 What is its recorded viability at 48 h, 20 µM?
**A:** 61.8
